Cited source: patent EP4714952A1

Target: PDE4B1 (Homo sapiens)
Construct: purchased Sigma
Sequence (Q07343 whole entry): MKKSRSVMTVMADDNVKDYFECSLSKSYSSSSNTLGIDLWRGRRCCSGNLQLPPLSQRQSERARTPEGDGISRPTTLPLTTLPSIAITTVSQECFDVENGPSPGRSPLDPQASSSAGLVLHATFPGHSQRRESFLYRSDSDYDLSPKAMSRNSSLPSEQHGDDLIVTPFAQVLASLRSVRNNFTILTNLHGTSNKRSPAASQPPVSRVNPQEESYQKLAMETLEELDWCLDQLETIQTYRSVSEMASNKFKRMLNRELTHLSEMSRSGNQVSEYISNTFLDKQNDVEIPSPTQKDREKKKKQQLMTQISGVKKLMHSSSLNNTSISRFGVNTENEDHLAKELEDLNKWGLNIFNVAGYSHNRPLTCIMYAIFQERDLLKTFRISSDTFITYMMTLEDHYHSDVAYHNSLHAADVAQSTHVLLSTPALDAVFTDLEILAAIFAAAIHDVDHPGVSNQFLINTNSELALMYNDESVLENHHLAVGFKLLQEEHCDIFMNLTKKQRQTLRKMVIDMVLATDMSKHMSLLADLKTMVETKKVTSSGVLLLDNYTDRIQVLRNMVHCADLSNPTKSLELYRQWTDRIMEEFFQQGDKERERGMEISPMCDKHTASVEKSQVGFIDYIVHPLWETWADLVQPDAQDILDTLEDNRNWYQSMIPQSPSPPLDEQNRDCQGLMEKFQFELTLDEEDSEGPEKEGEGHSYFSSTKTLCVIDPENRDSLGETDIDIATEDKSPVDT
Test: In vitro inhibitory effect on PDE4B1 enzyme (AMP-Glo assay)
Format: biochemical
pIC50: −log10 of the molar value.
So basically every entry gets a class from its pIC50, ranges being low bin = under 6, mid bin = from 6 up to 7, high bin = 7 and over

Problem: Hey, which category is CCOc1cc2c(cc1OC)-c1cc(=Nc3c(C)cc(C)cc3C)n(CCNC(=O)c3ccnn(C)c3=O)c(=O)n1CC2 in, do you know?
Result: high bin

Problem: Classify this molecule: CCOc1cc2c(cc1OC)-c1cc(N(CCC(=O)O)c3c(C)cc(C)cc3C)nc(=O)n1CC2
Result: high bin

Problem: Band for COCCOc1cc2c(cc1OC)-c1cc(=Nc3c(C)cc(C)cc3C)n(CCNC(=O)c3c(O)nnn3C)c(=O)n1CC2 ?
Result: mid bin

Problem: Into which category would you place CCOc1cc2c(cc1OC)CCn1c-2cc(=Nc2c(C)cc(C)cc2C)n(CCNC(N)=O)c1=O ?
Result: mid bin

Problem: # bin lookup: classify COc1cc2c(cc1OC)-c1cc(=Nc3c(C)cc(C)cc3C)n(CCNC(=O)c3cccn(CC(F)(F)F)c3=O)c(=O)n1CC2 by its pIC50
Result: mid bin

Problem: // return the class label for COc1cc2c(cc1OC)-c1cc(N(CCC#N)c3c(C)cc(C)cc3C)nc(=O)n1CC2
Result: mid bin

Problem: For this molecule, which bin applies? CCOc1cc2c(cc1OC)-c1cc(=Nc3c(C)cc(C)cc3C)n(CCNC(=O)c3ccnc(Cl)c3)c(=O)n1CC2
Result: mid bin

Problem: Just checking, what class would you give CCOc1cc2c(cc1OC)-c1cc(N(CC(=O)O)c3c(C)cc(C)cc3C)nc(=O)n1CC2 here?
Result: mid bin

Problem: Please classify: COc1cc2c(cc1OC)-c1cc(=Nc3c(C)cc(C)cc3C)n(CCNC(=O)NCCN3CCOCC3)c(=O)n1CC2
Result: low bin

Problem: Place this molecule in its band: COc1cc2c(cc1OC)-c1cc(=Nc3c(C)cc(C)cc3C)n(CCNC(=O)OCC(O)CCO)c(=O)n1CC2 (centres unmarked)
Result: low bin

Problem: Band for the recorded pIC50 of COc1cc2c(cc1OC)-c1cc(=Nc3c(C)cc(C)cc3C)n(CCNC(=O)NC3CCNCC3)c(=O)n1CC2 ?
Result: low bin

* * *

Target: PDE3A (Homo sapiens, UniProt Q14432)
Construct: purchased BPS
Sequence (Q14432 whole entry): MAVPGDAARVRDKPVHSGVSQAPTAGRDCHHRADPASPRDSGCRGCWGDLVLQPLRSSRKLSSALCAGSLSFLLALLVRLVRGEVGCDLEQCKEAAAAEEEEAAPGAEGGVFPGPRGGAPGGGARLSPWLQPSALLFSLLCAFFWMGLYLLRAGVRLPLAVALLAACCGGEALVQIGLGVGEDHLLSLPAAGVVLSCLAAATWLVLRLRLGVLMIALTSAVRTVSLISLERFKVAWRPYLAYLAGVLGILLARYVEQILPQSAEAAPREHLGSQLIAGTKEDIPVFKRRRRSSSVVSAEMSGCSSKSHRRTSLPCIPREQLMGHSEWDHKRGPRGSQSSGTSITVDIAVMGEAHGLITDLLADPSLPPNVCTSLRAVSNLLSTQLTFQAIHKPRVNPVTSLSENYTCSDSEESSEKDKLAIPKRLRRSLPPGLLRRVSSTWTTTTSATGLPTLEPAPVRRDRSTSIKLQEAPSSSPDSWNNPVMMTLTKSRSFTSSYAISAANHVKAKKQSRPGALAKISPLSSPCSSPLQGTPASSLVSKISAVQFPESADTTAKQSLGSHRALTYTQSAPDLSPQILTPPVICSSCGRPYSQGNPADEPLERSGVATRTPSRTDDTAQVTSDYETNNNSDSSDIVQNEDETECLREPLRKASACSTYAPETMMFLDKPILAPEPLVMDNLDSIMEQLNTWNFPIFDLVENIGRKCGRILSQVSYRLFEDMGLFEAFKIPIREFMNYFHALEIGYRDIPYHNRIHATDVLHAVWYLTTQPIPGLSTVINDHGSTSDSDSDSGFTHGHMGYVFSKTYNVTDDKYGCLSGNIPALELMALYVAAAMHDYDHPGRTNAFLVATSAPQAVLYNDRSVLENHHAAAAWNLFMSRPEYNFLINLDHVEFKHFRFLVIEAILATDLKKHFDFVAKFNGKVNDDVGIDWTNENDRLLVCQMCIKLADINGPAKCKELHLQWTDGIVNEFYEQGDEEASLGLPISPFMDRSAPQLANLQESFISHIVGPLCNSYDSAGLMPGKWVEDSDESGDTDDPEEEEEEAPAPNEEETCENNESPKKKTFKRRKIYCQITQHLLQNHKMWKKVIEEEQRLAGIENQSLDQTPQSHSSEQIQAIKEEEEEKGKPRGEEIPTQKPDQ
Assay: In vitro inhibitory effect on PDE3A enzyme (AMP-Glo assay)
Assay type: biochemical
Conditions: AMP-Glo Assay Kit, substrate cAMP, 23°C, 60 minutes; read-out: PDE3A (IC50)
Counter-ions that a name gives are not always drawn.
For each entry below, report its log10(IC50) value.
# log10 transformed; quantity=IC50; unit=nM

Problem: Look up log10(IC50) of CCOc1cc2c(cc1OC)-c1cc(N(CCNC(=O)c3ccccn3)c3c(C)cc(C)cc3C)nc(=O)n1CC2 and report it.
Result: -1.38

Problem: # return recorded log10(IC50) for input CCOc1cc2c(cc1OC)-c1cc(N(CCNC(=O)N3CCOCC3CO)c3c(C)cc(C)cc3C)nc(=O)n1CC2 (stereo not drawn)
Result: -1.37

Problem: Fill in reported log10(IC50) for this entry: COc1cc2c(cc1OC)-c1cc(N(c3c(C)cc(C)cc3C)C3CN(C(=O)c4nnc[nH]4)C3)nc(=O)n1CC2
Result: -0.09

Problem: Specify reported log10(IC50) for the compound shown: CCOc1cc2c(cc1OC)-c1cc(N(CCC(N)C(F)(F)F)c3c(C)cc(C)cc3C)nc(=O)n1CC2 (stereo not drawn)
Result: -1.57

Problem: Output measured log10(IC50) for this item: COc1cc2c(cc1OCC1CC1)CCn1c-2cc(=Nc2c(C)cc(C)cc2C)n(CCNC(=O)c2c(O)nnn2C)c1=O
Result: 0.33

Problem: Complete the entry with log10(IC50) for CCOc1cc2c(cc1OC)-c1cc(N(CCNC(=O)NOC)c3c(C)cc(C)cc3C)nc(=O)n1CC2
Result: -1.47

Problem: Give me measured log10(IC50), please, for this compound: CCOc1cc2c(cc1OC)-c1cc(N(CCN3CCN(C(C)=O)CC3)c3c(C)cc(C)cc3C)nc(=O)n1CC2
Result: -1.24

Problem: Assign log10(IC50) to the following record: COc1cc2c(cc1OC)-c1cc(=Nc3c(C)cc(C)cc3C)n(CCC(O)CO)c(=O)n1CC2 (stereo not drawn)
Result: -1.00

Problem: State its log10(IC50): CCOc1cc2c(cc1OC)-c1cc(=Nc3c(C)cc(C)cc3C)n(CCN3CCS(=O)(=O)CC3)c(=O)n1CC2
Result: -0.28

Problem: // fetch log10(IC50) given entry CCOc1cc2c(cc1OC)-c1cc(N(CCNC(=O)c3nnc(C)o3)c3c(C)cc(C)cc3C)nc(=O)n1CC2
Result: -1.44

Problem: Specify reported log10(IC50) for the compound shown: CCOc1cc2c(cc1OC)-c1cc(N(CCCN)c3c(C)cc(C)cc3C)nc(=O)n1CC2
Result: -0.48

Problem: Return log10(IC50) (reported value) for this compound: CCOc1cc2c(cc1OC)-c1cc(N(CCN3CC(F)C3)c3c(C)cc(C)cc3C)nc(=O)n1CC2
Result: -1.30

Problem: Answer with the recorded log10(IC50) of COc1cc2c(cc1OC)-c1c/c(=N\c3c(C)cc(C)cc3C)n(C)c(=O)n1CC2 [Trequinsin Hydrochlorid, Trequinsin hydrochloride, reference compound] only.
Result: -0.64

Problem: Return log10(IC50) (reported value) for this compound: COc1cc2c(cc1OC)-c1cc(=Nc3c(C)cc(C)cc3C)n(CCC(C)(C)O)c(=O)n1CC2
Result: -0.27

Problem: Look up log10(IC50) of CCOc1cc2c(cc1OC)-c1cc(=Nc3c(C)cc(C)cc3C)n(CCC(C)(C)O)c(=O)n1CC2 and report it.
Result: -0.37

Problem: Output measured log10(IC50) for this item: COc1cc2c(cc1OC)-c1c/c(=N\c3c(C)cc(C)cc3C)n(CCNC(N)=O)c(=O)n1CC2 [Ensifentrine, reference compound]
Result: -0.77

Problem: Return value of log10(IC50) for input CCOc1cc2c(cc1OC)-c1cc(N(CCNC(=O)c3ccno3)c3c(C)cc(C)cc3C)nc(=O)n1CC2 , no commentary.
Result: -1.26

Problem: Return value of log10(IC50) for input CNCCn1c(=Nc2c(C)cc(C)cc2C)cc2n(c1=O)CCc1cc(OC)c(OC)cc1-2 , no commentary.
Result: 0.82

Problem: # return recorded log10(IC50) for input CCOc1cc2c(cc1OC)-c1cc(N(CCNC(=O)c3c[nH]nn3)c3c(C)cc(C)cc3C)nc(=O)n1CC2
Result: -1.72

Problem: Consider the compound CCOc1cc2c(cc1OC)-c1cc(=Nc3c(C)cc(C)cc3C)n(CCC(N)C(F)(F)F)c(=O)n1CC2 (stereo not drawn) and give its recorded log10(IC50).
Result: -0.48

Problem: Specify measured log10(IC50) for COc1cc2c(cc1OC)-c1cc(N(CCC(O)CO)c3c(C)cc(C)cc3C)nc(=O)n1CC2 (stereo not drawn) .
Result: -1.59

Problem: Return reported log10(IC50). Input compound: COc1cc2c(cc1OC)-c1cc(N(CCC(C)(C)O)c3c(C)cc(C)cc3C)nc(=O)n1CC2
Result: -1.06

Problem: Supply measured log10(IC50) of CCOc1cc2c(cc1OC)-c1cc(N(CCNC(N)=O)c3c(C)cc(C)cc3C)nc(=O)n1CC2 in your reply.
Result: -2.10

Problem: Supply reported log10(IC50) belonging to this compound: COc1cc2c(cc1OCC(F)(F)F)CCn1c-2cc(=Nc2c(C)cc(C)cc2C)n(CCNC(=O)c2c(O)nnn2C)c1=O
Result: -0.47

Problem: Answer with the recorded log10(IC50) for the compound listed here: COc1cc2c(cc1OC)-c1cc(N(c3c(C)cc(C)cc3C)C3CN(C(=O)c4c(O)nnn4C)C3)nc(=O)n1CC2
Result: 1.86

Problem: Read off the recorded log10(IC50) for COc1cc2c(cc1OC)-c1cc(N(c3c(C)cc(C)cc3C)C3CN(C(=O)c4ncon4)C3)nc(=O)n1CC2
Result: 1.95

Problem: Report measured log10(IC50); entry is CCOc1cc2c(cc1OC)-c1cc(N(c3c(C)cc(C)cc3C)C3CN(C(=O)c4[nH]nnc4C)C3)nc(=O)n1CC2
Result: 1.39

Problem: Check the records and state log10(IC50) for CCOc1cc2c(cc1OC)-c1cc(N(CCN3CCS(=O)(=O)CC3)c3c(C)cc(C)cc3C)nc(=O)n1CC2
Result: -1.13

Problem: In one line, give reported log10(IC50) of the entry COc1cc2c(cc1OC)-c1cc(N(c3c(C)cc(C)cc3C)C3CN(C(=O)c4cnc[nH]4)C3)nc(=O)n1CC2 .
Result: 2.51

Problem: In one line, give reported log10(IC50) of the entry COc1cc2c(cc1OCc1ccccc1)CCn1c-2cc(=Nc2c(C)cc(C)cc2C)n(CCNC(N)=O)c1=O .
Result: 3.00
